Source: paper PMC5896373

Target under test: P2X7R point mutant F88A (Homo sapiens, UniProt Q99572, F88A/I21V/M24R/N16P/N25R/Q22R/R20V/S23N/T19I/Y26L)
Protocol description: Two-electrode voltage clamp of ATP-evoked currents in Xenopus oocytes
Measurement setup: EC90 ATP, mean ± S.E.M.
Experimental endpoint: pIC50
Recall that pIC50 is obtained by taking minus log10 of the concentration measured in molar.

Kindly note the recorded pIC50 for COc1ccc(CC(=O)NC(N=C(NC#N)Nc2cccc3ncccc23)C(C)(C)C)cc1OC (centres unmarked) , which is 5.30

###

Target under test: chimeric P2X7/1 receptor 122–128 (Homo sapiens, UniProt Q99572, DEL124-124/I21V/L128I/M24R/N16P/N25R/Q22R/R125E/R126G/R20V/S23N/T127G/T19I/Y122H/Y26L)
Sequence (Q99572 with tags, fused parts or gaps N16P/T19I/R20V/I21V/Q22R/S23N/M24R/N25R/Y26L/Y122H/DEL124-124/R125E/R126G/T127G/L128I): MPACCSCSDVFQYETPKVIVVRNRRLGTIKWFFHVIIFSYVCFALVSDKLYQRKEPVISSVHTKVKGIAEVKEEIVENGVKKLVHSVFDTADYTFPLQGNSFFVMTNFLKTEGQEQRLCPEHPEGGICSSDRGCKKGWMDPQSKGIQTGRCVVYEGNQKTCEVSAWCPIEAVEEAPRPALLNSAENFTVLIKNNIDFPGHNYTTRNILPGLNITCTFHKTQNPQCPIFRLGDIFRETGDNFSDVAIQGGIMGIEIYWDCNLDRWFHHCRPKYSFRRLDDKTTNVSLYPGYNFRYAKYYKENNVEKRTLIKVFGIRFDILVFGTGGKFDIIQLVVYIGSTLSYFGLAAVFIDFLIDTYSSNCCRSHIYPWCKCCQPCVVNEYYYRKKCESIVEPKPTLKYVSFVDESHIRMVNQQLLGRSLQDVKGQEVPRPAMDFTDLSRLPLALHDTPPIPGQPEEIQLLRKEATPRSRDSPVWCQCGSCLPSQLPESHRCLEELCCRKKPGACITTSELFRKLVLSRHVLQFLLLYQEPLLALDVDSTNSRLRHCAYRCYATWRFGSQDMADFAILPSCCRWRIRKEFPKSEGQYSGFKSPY
Protocol description: Two-electrode voltage clamp of ATP-evoked currents in Xenopus oocytes
# maps each entry to its pIC50
Recall that pIC50 is obtained by taking minus log10 of the concentration measured in molar.

- Molecule: "Cl.Clc1cccc(-c2nnnn2Cc2cccnc2)c1Cl.O [A438079]"
  pIC50: 6.10

Kindly note the recorded pIC50 for COc1ccc(CC(=O)NC(N=C(NC#N)Nc2cccc3ncccc23)C(C)(C)C)cc1OC (centres unmarked) [A740003] , which is 7.00
